B1: library; a variant is named by its letters at N, in order (parent)
chain: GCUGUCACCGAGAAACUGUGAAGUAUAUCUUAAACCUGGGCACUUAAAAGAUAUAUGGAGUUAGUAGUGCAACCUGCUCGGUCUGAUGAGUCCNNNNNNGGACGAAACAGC

- Variants of: B1
- ASSAY OVERVIEW: normalized RNA/DNA level with ligand (relative to sTRSVctl = 100) (log10 (% of sTRSVctl)); HEK293T; ligand: cyclic di-GMP (c-di-GMP-II aptamer); ligand concentration (+) RNA-Seq: 1 mM; higher = less ribozyme self-cleavage, higher mRNA level
- TEST CONTEXT: reporter: mCherry (pCS4076), ligand present: yes
Record form. Attribute: normalized RNA/DNA level with ligand (log10). Fill in for each entry.

Solved cases below.
Looking up `UCCGAA` , I see its normalized RNA/DNA level with ligand (log10) listed as 1.69

Looking up `CUGUUG` , I see its normalized RNA/DNA level with ligand (log10) listed as 1.69

Looking up `CAACCU` , I see its normalized RNA/DNA level with ligand (log10) listed as 1.74

Looking up `AGCCUU` , I see its normalized RNA/DNA level with ligand (log10) listed as 1.85

Looking up `UACCCA` , I see its normalized RNA/DNA level with ligand (log10) listed as 1.86

Batch request: normalized RNA/DNA level with ligand (log10) per item, same order as input.
1. UGAUUC
2. UCUCUA
3. AAUCAA
4. UGUAUG
5. CGACUA
6. AAGCGA
7. AUUACA

-- reply
[1.86, 1.82, 1.73, 1.9, 1.48, 1.65, 1.79]

Batch request: normalized RNA/DNA level with ligand (log10) per item, same order as input.
1. GAUAAA
2. AUAGGU
3. CUUCUC
4. GACACU
5. GUCGCU
6. CCCCGC

-- reply
1. 1.63
2. 1.69
3. 1.86
4. 1.83
5. 1.87
6. 1.88

Batch request: normalized RNA/DNA level with ligand (log10) per item, same order as input.
1. CGGCUU
2. AGCGAA

-- reply
[1.67, 1.61]

src = the supplement of paper PMC6757056
